- assay.procedure: AUC at 24 hrs steady state in patient with complicated skin and skin structure infection at 100 mg loading dose followed by 50 mg every 12 hrs
- Format: ADME, organism-based
- Set-up: dose 100 mg, time < 24 hr
- particulars: human, plasma

given.smiles: CN(C)c1cc(NC(=O)CNC(C)(C)C)c(O)c2c1C[C@H]1C[C@H]3[C@H](N(C)C)C(O)=C(C(N)=O)C(=O)[C@@]3(O)C(O)=C1C2=O
AUC at 24 h: 5390 ng·h/mL

====

- assay.procedure: AUC at 24 hrs steady state in patient with complicated skin and skin structure infection at 50 mg loading dose followed by 25 mg every 12 hrs
- Format: ADME, organism-based
- Design: time < 24 hr, dose 50 mg
- particulars: human, plasma
measurement.kind: AUC at 24 h (ng·h/mL)

given.smiles: CN(C)c1cc(NC(=O)CNC(C)(C)C)c(O)c2c1C[C@H]1C[C@H]3[C@H](N(C)C)C(O)=C(C(N)=O)C(=O)[C@@]3(O)C(O)=C1C2=O
unit.name: ng·h/mL
reported.value: 2660
